These entries and their values trace back to ChEMBL document CHEMBL5532653.

# Test system: D283 Med
# protocol text: Antiproliferative activity against human D283 Med cells assessed as inhibition of cell growth measured after 72 hrs by CellTiter-Glo assay
# Type: functional, cell-based
observation type: pIC50
pIC50 is a log-scale quantity: -log10 of the concentration expressed in molar.

Recorded pIC50 for `Cn1cc(-c2ccc(S(=O)(=O)n3ccc(/C=C/C(=O)Nc4ccccc4N)c3)cc2)cn1` with D283 Med, please?
6.82

###

# target of assay: Bromodomain testis-specific protein (Homo sapiens, UniProt Q58F21)
# protocol text: Inhibition of BRDT BD2 (unknown origin) by TR-FRET assay
observation type: IC50 (µM)
# unit: µM | format: bare number

Notebook: pull reported IC50 for Bromodomain testis-specific protein (Homo sapiens, UniProt Q58F21), entry `Cc1sc2c(c1C)C(c1ccc(Cl)cc1)=N[C@@H](CC(=O)Nc1ccc(C(=O)NO)cc1)c1nnc(C)n1-2`
32.2

###

# target of assay: Bromodomain-containing protein 3 (Homo sapiens, UniProt Q15059)
# Sequence (Q15059 whole entry): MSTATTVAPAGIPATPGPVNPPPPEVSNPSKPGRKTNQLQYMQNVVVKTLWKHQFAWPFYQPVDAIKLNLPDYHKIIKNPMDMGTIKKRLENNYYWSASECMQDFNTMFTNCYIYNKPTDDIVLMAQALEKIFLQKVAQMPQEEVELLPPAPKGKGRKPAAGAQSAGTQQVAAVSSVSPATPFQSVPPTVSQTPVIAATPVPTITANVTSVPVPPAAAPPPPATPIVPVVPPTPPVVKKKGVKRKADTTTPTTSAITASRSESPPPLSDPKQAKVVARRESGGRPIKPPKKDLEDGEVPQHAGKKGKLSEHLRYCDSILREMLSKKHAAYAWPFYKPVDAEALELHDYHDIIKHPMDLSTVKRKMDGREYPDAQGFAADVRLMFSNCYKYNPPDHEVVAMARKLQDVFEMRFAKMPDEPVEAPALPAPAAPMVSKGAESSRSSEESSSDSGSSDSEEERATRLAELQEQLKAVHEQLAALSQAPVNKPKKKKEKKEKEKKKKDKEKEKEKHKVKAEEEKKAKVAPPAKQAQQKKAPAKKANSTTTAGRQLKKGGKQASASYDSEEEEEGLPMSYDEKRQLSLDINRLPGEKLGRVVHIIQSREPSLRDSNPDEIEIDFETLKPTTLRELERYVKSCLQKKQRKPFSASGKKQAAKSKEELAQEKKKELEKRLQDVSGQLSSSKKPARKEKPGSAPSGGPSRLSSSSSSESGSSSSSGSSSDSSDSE
# protocol text: Inhibition of recombinant BRD3 BD1 (unknown origin) incubated for 120 mins by TR-FRET assay
observation type: IC50 (nM)
Give just the numeric value; nM need not be written.

API: value(readout= IC50, system= Bromodomain-containing protein 3 (Homo sapiens, UniProt Q15059), query= `Cc1sc2c(c1C)C(c1ccc(Cl)cc1)=N[C@@H](CC(=O)Nc1ccc(C(=O)NO)cc1)c1nnc(C)n1-2` )
133

###

# target of assay: Bromodomain-containing protein 3 (Homo sapiens, UniProt Q15059)
# protocol text: Inhibition of BRD3 BD2 (unknown origin) incubated for 180 min by TR-FRET assay
observation type: pIC50
// field semantics: pIC50 = negative decimal log of concentration (mol/L)

I would be grateful if you could share the reported pIC50 for `Cc1sc2c(c1C)C(c1ccc(Cl)cc1)=N[C@@H](CC(=O)Nc1ccc(C(=O)NO)cc1)c1nnc(C)n1-2` .
7.42

###

# Test system: MCF7
# protocol text: Antiproliferative activity against human MCF7 cells assessed as reduction in cell growth by MTT assay
# Assay type: functional, cell-based
observation type: IC50 (µM)
// note: answer is a bare numeric in µM

Give its IC50 value. Item: `O=C(NO)C1CCN(C[C@@H](O)COC(Cn2c3ccccc3c3ccccc32)Cn2c3ccccc3c3ccccc32)CC1`
1.88

###

# target of assay: Protein deacetylase HDAC6 (Homo sapiens, UniProt Q9UBN7)
# Sequence (Q9UBN7 whole entry): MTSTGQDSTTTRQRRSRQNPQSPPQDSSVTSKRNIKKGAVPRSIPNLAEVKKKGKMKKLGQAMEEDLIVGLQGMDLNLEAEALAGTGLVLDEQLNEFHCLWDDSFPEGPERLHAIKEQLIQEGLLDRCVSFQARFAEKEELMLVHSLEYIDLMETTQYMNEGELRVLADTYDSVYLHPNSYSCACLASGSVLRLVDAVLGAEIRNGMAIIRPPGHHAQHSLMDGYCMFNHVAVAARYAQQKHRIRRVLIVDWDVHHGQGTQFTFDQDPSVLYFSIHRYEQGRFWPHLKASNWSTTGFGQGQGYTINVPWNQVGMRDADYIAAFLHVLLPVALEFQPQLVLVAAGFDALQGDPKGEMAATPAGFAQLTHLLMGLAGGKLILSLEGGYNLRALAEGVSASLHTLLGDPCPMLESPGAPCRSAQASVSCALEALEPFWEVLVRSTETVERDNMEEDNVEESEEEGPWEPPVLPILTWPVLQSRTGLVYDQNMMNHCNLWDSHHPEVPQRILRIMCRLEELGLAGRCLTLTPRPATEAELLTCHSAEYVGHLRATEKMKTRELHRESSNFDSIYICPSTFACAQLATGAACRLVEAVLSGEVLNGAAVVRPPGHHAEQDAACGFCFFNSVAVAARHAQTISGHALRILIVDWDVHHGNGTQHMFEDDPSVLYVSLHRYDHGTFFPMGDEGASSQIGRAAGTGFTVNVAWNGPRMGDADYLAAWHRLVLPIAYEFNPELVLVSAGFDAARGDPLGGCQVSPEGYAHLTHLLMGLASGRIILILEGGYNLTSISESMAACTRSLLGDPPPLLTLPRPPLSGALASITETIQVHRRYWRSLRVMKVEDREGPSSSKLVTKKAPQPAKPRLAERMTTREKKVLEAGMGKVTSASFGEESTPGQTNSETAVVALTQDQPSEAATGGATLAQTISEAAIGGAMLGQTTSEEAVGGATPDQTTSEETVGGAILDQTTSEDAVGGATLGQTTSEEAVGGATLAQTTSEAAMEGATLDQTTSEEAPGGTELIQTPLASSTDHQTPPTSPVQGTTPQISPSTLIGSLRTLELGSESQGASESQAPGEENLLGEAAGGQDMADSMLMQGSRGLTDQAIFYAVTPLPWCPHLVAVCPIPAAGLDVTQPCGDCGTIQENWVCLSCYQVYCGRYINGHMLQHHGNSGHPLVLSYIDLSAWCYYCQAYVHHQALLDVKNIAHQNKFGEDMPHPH
# protocol text: Inhibition of HDAC6 (unknown origin) by fluorescence based assay
observation type: pIC50
On this scale, pIC50 is minus log10 of a concentration expressed in M (mol/L).

Can you share its pIC50? I mean this molecule: `Cc1sc2c(c1C)C(c1ccc(Cl)cc1)=N[C@@H](CC(=O)Nc1ccc(C(=O)NO)cc1)c1nnc(C)n1-2`
7.47

###

# target of assay: Histone deacetylase 2 (Homo sapiens)
# Sequence (Q92769 whole entry): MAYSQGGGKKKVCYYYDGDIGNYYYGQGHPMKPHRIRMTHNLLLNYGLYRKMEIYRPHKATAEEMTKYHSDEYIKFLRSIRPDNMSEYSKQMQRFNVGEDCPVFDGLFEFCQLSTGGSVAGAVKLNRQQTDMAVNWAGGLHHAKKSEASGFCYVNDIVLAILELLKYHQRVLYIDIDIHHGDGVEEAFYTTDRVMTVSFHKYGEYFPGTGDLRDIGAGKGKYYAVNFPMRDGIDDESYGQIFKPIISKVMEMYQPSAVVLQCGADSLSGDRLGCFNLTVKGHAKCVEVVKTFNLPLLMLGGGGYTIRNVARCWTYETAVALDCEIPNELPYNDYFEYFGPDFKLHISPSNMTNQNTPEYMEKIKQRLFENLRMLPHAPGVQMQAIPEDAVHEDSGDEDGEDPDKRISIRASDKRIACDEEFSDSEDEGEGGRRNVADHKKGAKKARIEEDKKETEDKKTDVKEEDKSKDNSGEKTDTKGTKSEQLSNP
# protocol text: Inhibition of human recombinant HDAC2 in HeLa cells using Boc-Lys(Ac)-AMC or Boc-Lys(Tfa)-AMC as fluorogenic substrate preincubated for 10 mins followed by substrate addition and measured after 1 hr by fluorescence based analysis
# Type: cell-based
observation type: IC50 (µM)
Field format: number, assumed µM, no unit text.

Tell me the measured IC50 of `Cc1noc(C)c1-c1ccc2c(c1)c(Cc1ccc(F)cc1)cn2CCCCCCC(=O)NO` , please.
0.029
